The measured values listed here are drawn from PubChem BioAssay (NCI).

Experiment: NCI Yeast Anticancer Drug Screen. Data for the wt1 strain (AID 149);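 further: 0% = growth of vehicle-treated wt1 cultures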
Settings: S. cerevisiae wt1 strain (SPY 50644) growth inhibition; at 11.0 µM
The panel holds about 79,000 compounds, 15% with a hit somewhere; the sample as a whole holds those more often. The source made the active and inactive calls. No stated cut-off is given here; in the data, active means growth inhibition above about 70%; inactive means the rest.
One label from this list, please: true (1) for active, false (0) for inactive

Example entries begin here.
Task: Which result was noted for this molecule in the test: O=C1NC(c2c(Cl)cccc2Cl)Nc2ccccc21 (stereo not given)
Result: false (0)

Task: Which result was noted for this molecule in the test: COC(=O)CSc1nnc(CSc2ccc(Cl)cc2)n1-c1ccccc1
Result: false (0)

Task: Which result was noted for this molecule in the test: O=C1CC(=O)N(C2CCCCC2)C(=O)N1c1ccccc1S(=O)(=O)Oc1ccccc1
Result: false (0)

Task: Which result was noted for this molecule in the test: CN(C)c1ccc(/C=C/c2ccnc3ccccc23)cc1N
Result: false (0)

Task: Which result was noted for this molecule in the test: COc1ccc(/C(C#N)=C/c2ccc(OC)c(OC)c2)cc1
Result: false (0)

New cases:
Task: Which result was noted for this molecule in the test: Cc1cc(C(C)(C)CC(C)(C)C)cc(O)c1O
Result: true (1)

Task: Which result was noted for this molecule in the test: Cc1ccc(S(=O)(=O)Nc2ccc3c(c2)C(O)c2ccccc2-3)cc1 (stereo not given)
Result: false (0)

Task: Which result was noted for this molecule in the test: COc1ccc(/C=C2\SC(=S)N(C=C3C(=O)NC(=S)NC3=O)C2=O)cc1OC
Result: false (0)

Task: Which result was noted for this molecule in the test: C/C(=N\NC(=S)NNC(=S)N(C)c1ccccc1)c1ccccn1
Result: true (1)

Task: Which result was noted for this molecule in the test: CC1=CCC(C(C)(C)c2ccc(O)cc2)CC1 (stereo not given)
Result: false (0)

Task: Which result was noted for this molecule in the test: CCC(=O)Oc1ccc(/C=N/NC(N)=S)nc1
Result: false (0)

Task: Which result was noted for this molecule in the test: CCCCC(=O)c1c(O)nc2sccn2c1=O
Result: false (0)

Task: Which result was noted for this molecule in the test: COc1cc(NCc2ccc3nc(N)nc(N)c3c2C)cc(OC)c1OC
Result: false (0)

Task: Which result was noted for this molecule in the test: CC(=O)Oc1ccc(C(=O)c2ccccc2)c(O)c1
Result: false (0)

Task: Which result was noted for this molecule in the test: CCCCCCCCCCCCCCCCCCNC(=S)/N=C\C1=C(O)c2ccccc2C1=O
Result: false (0)

Task: Which result was noted for this molecule in the test: CCC(=O)N(c1ccccc1)C(C)CN1CCC(O)(c2cccc(C(F)(F)F)c2)CC1 (stereo not given)
Result: false (0)

Task: Which result was noted for this molecule in the test: CC(=O)O[C@H]1C(=O)[C@@]2(C)[C@H]([C@H](OC(=O)c3ccccc3)[C@]3(O)C[C@H](OC(=O)[C@H](O)[C@@H](NC(=O)c4ccccc4)c4ccccc4)C(C)=C1C3(C)C)[C@]1(OC(C)=O)CO[C@@H]1C[C@@H]2O
Result: false (0)

Task: Which result was noted for this molecule in the test: CCCCCCCCCCCc1nc(N)n[nH]1
Result: false (0)

Task: Which result was noted for this molecule in the test: CCN(CC)CC(O)c1cc(-c2ccc(Cl)cc2)nc2c(-c3ccccc3)cccc12 (stereo not given)
Result: true (1)

Task: Which result was noted for this molecule in the test: O=NN(CCCl)C(=O)NCCCl
Result: false (0)

Task: Which result was noted for this molecule in the test: c1ccc(N2N=C3N(c4ccccc4)C2N3c2ccccc2)cc1
Result: false (0)

Task: Which result was noted for this molecule in the test: CCCCC(CC)C(=O)Oc1ccc(C(=O)c2ccccc2)c(O)c1 (stereo not given)
Result: false (0)

Task: Which result was noted for this molecule in the test: On1cnc(=S)c2[nH]cnc21
Result: false (0)
